assay: Solubility in saline; assay type: physicochemical; settings: saline, saline or isotonic, text of Examples 8-14
experimentalReadout: solubility (µg/mL)
Dear colleague, please return just the value in µg/mL, with no unit written.

Looking for the measured solubility of CO/N=C(\C(=O)N[C@@H]1C(=O)N2C(C(=O)O)=C(CSc3nc(=O)c(=O)[nH]n3C)CS[C@H]12)c1csc(N)n1 , can you help? 205

---

Provide the reported solubility of each item.
experiment: physchem; details: aqueous buffer, thermodynamic from solid

Looking for the measured solubility of C=CC1=C(C(=O)O)N2C(=O)[C@@H](NC(=O)/C(=N\O)c3csc(N)n3)[C@H]2SC1 [cefdinir] , can you help? > 0.205 mg/mL

Now the compound NC1C2CN(c3nc4c(cc3F)c(=O)c(C(=O)O)cn4-c3ccc(F)cc3F)CC12 (centres unmarked) > 0.205 mg/mL

Now the compound CC(Cc1ccc(OCC(=O)O)cc1)NCC(O)c1csc(C(F)(F)F)n1 (centres unmarked) > 0.205 mg/mL

Now the compound CO/N=C(\C(=O)N[C@@H]1C(=O)N2C(C(=O)[O-])=C(C[N+]3(C)CCCC3)CS[C@H]12)c1csc(N)n1 [cefepime] > 0.205 mg/mL

Now the compound COCC1=C(C(=O)O)N2C(=O)[C@@H](NC(=O)/C(=N\OC)c3csc(N)n3)[C@H]2SC1 [cefpodoxime] > 0.205 mg/mL
